Assign Ancestral Pseudovirus IC50 to each entry below.
Target: SARS-CoV-2 S of the Ancestral pseudovirus (pSARS-COV2-Strunc) (SARS-CoV-2 (ancestral), UniProt P0DTC2 14-1254)
Test: cell-based or functional assay
# unit: µg/mL | format: bare number

Recorded Ancestral Pseudovirus IC50 (binder rbd.141 (antibody, V domains shown) VH: EVQLVESGGGVVQPGRSLRLSCAASGFTFSSYGMHWVRQAPGKGLEWVAVISYDGKIKYYADSVEGRFTISRDNSKNALYLQMNSLRAEDTAVYYCAKYGIVTSFGVVPPYDMDVWGQGTTVTVSS VL: DVVMTQSPLSLPVTLGQPASISCRSSQSLVYSDGNTFLNWFQQRPGQSPRRLIYKVSDRDSGVPDRFSGSGSGTDFTLKISRVEAEDVGVYYCMQGTNWPPTFGQGTKVEIK ): 0.164

So, rbd.117 (antibody, V domains shown) VH: EVQLVESGGGLVQPGGSLRLSCAASGFTFSRYAMSWVRQAPGKGLEWVSGLSGSGDSTYYADSVKGRFTISRDNSKKTLNLQMNSLRPEDTAVYYCAKGSRFGIDYFDCWGQGTLVTVSS VL: DIQMTQSPSTLSASVGDRVTITCRASQSISSWLAWYQLKPGKAPKLLIYDASSLESGVPSRFSGSGSGTEFTLTISSLQPDDFATYYCQQYNTYPFSFGPGTKVDIK ? Its Ancestral Pseudovirus IC50 was 0.203

Sample sd1.108 (antibody, V domains shown) VH: QVQLVQSGAEVKKPGASVKVSCKASGYTFTSYYIHWVRQTPGQGLEWMGIINPRGGSTSYPQKFQGRVSMTRDTSTSTVFMELSSLRSDDTAVYYCAREHREDTAMDNQPSDSWGQGTLVTVSS VL: DIVMTQSPDSLSVSLGERATINCKSSRSVFYSSNNKSYLAWYQQKPGQPPKLLIYWASTRESGVRDRFSGSGSGTDFTLTISSLQAEDVAVYYCQQYYNTPYTFGQGTKLEIK ; Ancestral Pseudovirus IC50 observed: 0.446

rbd.123 (antibody, V domains shown) VH: QVQLVQSGAEVKKPGSSVKVSCKASGGAFRMYAISWVRQAPGQGLEWMGGIIPISGTATYTQNFQGRVTITVDRSTSTAYMELSSLRSDDTALYYCARGPRTGYDYFDFWGQGTLVTVSS VL: DIQMTQSPSTLSASVGDRVTITCRASQSISSWLAWYQQKPGKAPNLLIYDASSLESGVPSRFSGSGSGTEFTLTISSLQPDDFATYYCQQYKSYPYTFGQGTKLEIK yielded Ancestral Pseudovirus IC50 of 1.21

Ancestral Pseudovirus IC50 measured on rbd.035 (antibody, V domains shown) VH: EVQLLESGGGLIEPGGSLRLSCAASGFPFNTFAMTWVRQPPGKGLEWVATISSRGDYTFYADFVKGRFSISRDNANNALWLDMSGLRAEDTALYYCAKGESGYDLYLYGLDLWGQGTTVTVSS VL: DIQMTQSPSSLSASVGDGVTITCRASQNINNYLSWYQKKAGKAPKLLIYGASTLHSGVPSRFSGSGSGTDFTLTISSLQPEDFASYYCQQNSPTPPWTFGQGTKVEIK = 0.00152

Entry rbd.049 (antibody, V domains shown) VH: QLQLQESGPGLVKPSETLSLSCTVSGGSISSKSDYWGWIRQSPGKGLEWIGSIYYTGTTYYNPSLKSRVSISLDKSKNQFSLKLNSLTAADTALYYCARDPSIAVATTVYFDAWGQGTLVTVSS VL: EIVLTQSPGTLSLSPGERATLSCRASESVKSNYLAWYQQKLGQPPRLLIFGASTRATGIPDRFSGSGSGTDFTLTISRLEPEDFAVYYCQQYHTSPPRYTFGQGTKLEIK ; Ancestral Pseudovirus IC50 = 3.71

Recorded result, rbd.110 (antibody, V domains shown) VH: EVQLVESGGGVVQPGRSLRLSCVASGFTFSRYGMHWVRQAPGKGLEWVATILYDGSDQYYAESVKGRFTISRDNSKNTLYLQMNSLREADTAVYYCAKTSYGYAYNFRLYFDYWGQGTLVTVSS VL: SYELTQPPSVSVAPGKTATITCGGNNIGSAGVHWYQQRPGQAPVLVVYDDSDRPSGIPERFSGSTSGNTATLTISRVEAGDEADYYCQVWDSNSAPVIFGGGTKLTVL , Ancestral Pseudovirus IC50: 4.25

// sample rbd.113 (antibody, V domains shown) VH: EVQLVQSGAAVKKPGESLKISCKGSGYSFTNYWIGWVRQMPGKGLELMGIIYVGDSDTRYSPSFQGQVTISADKSITTAYLQWSSLKASDSAIYYCARQRCGGDCPFDLWGRGTLVTVSS VL: DIQMTQSPSTLSASVGDRVTITCRASQSINRWLAWYQQKPGKAPELLIYDASDLESGVPSRFSGSGSGTEFTLTISSLQPDDFATYYCQQYNSYWTFGQGTKVEIK , its Ancestral Pseudovirus IC50 was 0.373

Record rbd.112 (antibody, V domains shown) VH: EVQLVQSGAEVKKSGESLKISCKSSGYSFTTYWIAWVRQMPGKGLEWMGIIYPGHSDARYSPSFQGHVTISADKSISTAYLQWRSLKASDTAIYYCARLSYYDVSNFYYYDSYWFDSWGLGTLVTVSS VL: QSVLTQPPSVSGAPGQRVTISCTGSSSNLGAGYDVHWYQQLPGTAPKLLIYANSNRPSGVPDRFSGSKSGTSASLAMTGLQAEDEADYYCQSYDSSLGGYVFGFGTKVTVL . Reported Ancestral Pseudovirus IC50: 0.0867

Record summary for rbd.048 (antibody, V domains shown) VH: EVQLVESGGGLVQPGGSLRLSCAASGFTVSSNYMTWVRQAPGKGLEWVSVIYSGGSTFYTDSVKGRFTISRDNSKNTLYLQMNSLRAEDTAVYYCARDVVYYGMDVWGQGTTVTVSS VL: DIQMTQSPSSLSASVGDRVTITCRASQSISSYLNWYQQKPGKAPKLLIYAASSLQSGVPSRFSGSGSGTDFTLTISSLQPEDFATYYCQESYSNSPYTFGQGTKLEIK : reported Ancestral Pseudovirus IC50 = 0.00275
